# Conditions: [M+CH3COO]-; instrument: TW; calibrated with phosphatidylcholines (ESI+) and phosphatidylethanolamines (ESI-)
Parameter Measured: collision cross section (N2) (Å²)

| Sample Smiles | Unit Name | Measured Number |
| --- | --- | --- |
| CCCCC/C=C\C/C=C\CCCCCCCC(=O)OC[C@H](COP(=O)([O-])OCC[N+](C)(C)C)OC(=O)CCCCCCCCC/C=C\CCCCCC | Å² | 291.6 |
| CCCCC/C=C\C/C=C\CCCCCCCCCC(=O)O[C@H](COC(=O)CCCCCCCCC/C=C\CCCCCC)COP(=O)([O-])OCC[N+](C)(C)C | Å² | 296.7 |
| CCCCC/C=C\C/C=C\C/C=C\CCCCC(=O)OC[C@H](COP(=O)([O-])OCC[N+](C)(C)C)OC(=O)CCCCCCCCC/C=C\C/C=C\CCCCC | Å² | 295.4 |
| CCCCCC/C=C\CCCCCCCCCC(=O)O[C@H](COC(=O)CCCCCCC/C=C\CCCCCCCC)COP(=O)([O-])OCC[N+](C)(C)C | Å² | 293.3 |
